These measurements were taken from patent US6831199B1.

- TEST_SYSTEM: Human vitronectin receptor (αvβ3) (Homo sapiens, UniProt P05106+P06756)
- Construct: Human vitronectin receptor (αvβ3) was purified from human placenta; from tissue; host or cells: human placenta
- ASSAY_NOTES: Vitronectin adhesion assay (solid phase receptor assay, competition with biotinylated vitronectin)
- Format: binding
- COND: read-out: AvB3 IC50
Counter-ions that a name gives are not always drawn.
PROPERTY_NAME: pIC50
Remember, pIC50 is on a log scale: it is -log10 of the molar concentration.

Use these answered entries as a reference point.
{"COMPOUND": "N=C(N)Nc1cccc(C(=O)NCC(=O)NC(CC(=O)O)c2cc(C(F)(F)F)cc(C(F)(F)F)c2)c1 (racemic) [Example 36, trifluoroacetate salt]", "PROPERTY_NAME": "pIC50", "VALUE_OBSERVED": 7.84}
{"COMPOUND": "N=C(N)Nc1cccc(C(=O)NCC(=O)NC(CC(=O)O)c2cc(Cl)cc(Cl)c2Cl)c1 (stereo not drawn) [Example 254, trifluoroacetate salt]", "PROPERTY_NAME": "pIC50", "VALUE_OBSERVED": 7.78}

Request body: readout pIC50, system Human vitronectin receptor (αvβ3) (Homo sapiens, UniProt P05106+P06756), query Cc1cccc(C(CC(=O)O)NC(=O)CNC(=O)c2cccc(NC(=N)N)c2)n1 (racemic) . Return the value.
8.14

====

- TEST_SYSTEM: Human vitronectin receptor (αvβ3) (Homo sapiens, UniProt P05106+P06756)
- Construct: Human vitronectin receptor (αvβ3) was purified from human placenta; from tissue; host or cells: human placenta
- ASSAY_NOTES: Vitronectin adhesion assay (solid phase receptor assay, competition with biotinylated vitronectin)
- Assay type: binding
- COND: read-out: AvB3 IC50
Where a name gives a salt, the structure may show the parent alone.
# log10 of IC50 listing for each entry below
Recorded IC50 (log10, nM)

Use these answered entries as a reference point.
{"COMPOUND": "C#C[C@@H](CC(=O)O)NC(=O)CNC(=O)c1cccc(NC(=N)N)c1 [Example 70, trifluoroacetate salt]", "log10 of IC50": 1.80}
{"COMPOUND": "CCOC(=O)CC(NC(=O)CNC(=O)c1cccc(NC2=NCCS2)c1)c1cccnc1 (stereo not shown) [Example 100, trifluoroacetate salt]", "log10 of IC50": 3.93}
{"COMPOUND": "C/N=C(/Nc1cccc(C(=O)NCC(=O)NC(CC(=O)O)c2cc(Cl)cc(Cl)c2)c1)NC(C)C (racemic) [Example 296, trifluoroacetate salt]", "log10 of IC50": 2.61}

// query log10 of IC50 value for entry CCOC(=O)CC(NC(=O)CNC(=O)c1cccc(NC(N)=S)c1)c1ccccc1 (stereo not shown)
4.19

Field entry: C#C[C@H](CC(=O)OCC)NC(=O)CNC(=O)c1cccc(NC(=N)N)c1 [Example 58, trifluoroacetate salt]
2.21

Field entry: O=C(O)CC(NC(=O)CNC(=O)c1cccc(NC(=O)NCc2ccccc2)c1)c1cc(Cl)cc(Cl)c1 (stereo not shown) [Example 269, monohydrate]
2.32

====

- TEST_SYSTEM: Human vitronectin receptor (αvβ3) (Homo sapiens, UniProt P05106+P06756)
- Construct: Human vitronectin receptor (αvβ3) was purified from human placenta; from tissue; host or cells: human placenta
- ASSAY_NOTES: Vitronectin adhesion assay (solid phase receptor assay, competition with biotinylated vitronectin)
- Format: binding
- COND: read-out: AvB3 IC50
Structures can show the parent of a compound that is named as a salt.
PROPERTY_NAME: pIC50
Remember, pIC50 is on a log scale: it is -log10 of the molar concentration.

{"COMPOUND": "NC(=S)Nc1cccc(C(=O)NCC(=O)NC(CC(=O)O)c2ccccc2)c1 (stereo not shown)", "PROPERTY_NAME": "pIC50", "VALUE_OBSERVED": 7.22}
{"COMPOUND": "CCOC(=O)CC(NC(=O)CNC(=O)c1cccc(NC(=N)N)c1)c1cnc2ccccc2c1 (racemic)", "PROPERTY_NAME": "pIC50", "VALUE_OBSERVED": 6.84}
{"COMPOUND": "N=C(N)Nc1cc(C(=O)NCC(=O)NC(CC(=O)O)c2cc(Cl)cc(Cl)c2)ccc1Cl (stereo not shown) [Example 168, trifluoroacetate salt]", "PROPERTY_NAME": "pIC50", "VALUE_OBSERVED": 8.64}
{"COMPOUND": "CCOC(=O)CC(NC(=O)CNC(=O)c1cccc(NC(=N)N)c1)c1ccc2c(c1)OCO2 (racemic) [Example 5, trifluoroacetate salt]", "PROPERTY_NAME": "pIC50", "VALUE_OBSERVED": 6.64}
{"COMPOUND": "O=C(O)CC(NC(=O)CNC(=O)c1cccc(NC(=O)NCc2ccccc2)c1)c1cccnc1 (racemic) [Example 106]", "PROPERTY_NAME": "pIC50", "VALUE_OBSERVED": 9.10}

Request body: readout pIC50, system Human vitronectin receptor (αvβ3) (Homo sapiens, UniProt P05106+P06756), query N=C(N)Nc1cccc(C(=O)NCC(=O)NC(CC(=O)O)c2cc(Br)cc(Br)c2O)c1 (racemic) [Example 227, trifluoroacetate salt, monohydrate] . Return the value.
7.85

Field entry: N=C(N)Nc1cc(NC(=N)N)cc(C(=O)NCC(=O)NC(CC(=O)O)c2cc(Cl)cc(Cl)c2)c1 (stereo not shown)
8.91

Field entry: O=C(O)CC(NC(=O)CNC(=O)c1cccc(NC2=NCCCN2)c1)c1cc(Cl)cc(Br)c1O (racemic) [Example 236, trifluoroacetate salt, monohydrate]
9.28

Field entry: O=C(O)CC(NC(=O)CNC(=O)c1cccc(NC2=NCCC2)c1)c1cccnc1 (stereo not shown)
8.58

Field entry: C#C[C@H](CC(=O)O)NC(=O)CNC(=O)c1cccc(NC(=N)N)c1 [Example 69, trifluoroacetate salt]
9.04
